Lab note: pIC50 readings collected with HCV Δ21 NS5b polymerase (Hepatitis C virus genotype 1b) for the following compounds.
Scale explanation: pIC50 corresponds to minus log10 of a concentration expressed in moles per litre.

C[C@@]1(O)[C@H](O)[C@@H](COP(=O)(O)OP(=O)(O)OP(=O)(O)O)O[C@H]1c1scc2c(=O)[nH]c(N)nc12 [Compound 63] :: 6.57

get_value(item= C[C@@]1(O)[C@H](O)[C@@H](COP(=O)(O)OP(=O)(O)OP(=O)(O)O)O[C@H]1c1scc2c(N)ncnc12 [Compound 4] , readout=pIC50) returns 6.43
